# system-under-test: Endothelin receptor type B (Homo sapiens, UniProt P24530)
# Sequence (P24530 whole entry): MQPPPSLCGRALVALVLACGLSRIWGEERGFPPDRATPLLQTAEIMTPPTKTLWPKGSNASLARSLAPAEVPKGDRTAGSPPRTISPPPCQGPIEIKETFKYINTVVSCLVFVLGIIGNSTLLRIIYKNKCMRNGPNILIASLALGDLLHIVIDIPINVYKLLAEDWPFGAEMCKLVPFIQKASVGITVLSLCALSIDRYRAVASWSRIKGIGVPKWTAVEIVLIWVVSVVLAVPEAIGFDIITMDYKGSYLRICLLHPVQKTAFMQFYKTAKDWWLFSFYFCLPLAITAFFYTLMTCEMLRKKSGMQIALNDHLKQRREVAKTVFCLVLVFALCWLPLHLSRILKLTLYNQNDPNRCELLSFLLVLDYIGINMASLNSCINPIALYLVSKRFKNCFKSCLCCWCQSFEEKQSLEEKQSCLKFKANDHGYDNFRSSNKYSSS
# protocol-summary: Binding affinity against human cloned Endothelin B receptor expressed in CHO-K1 cells
# Assay type: cell-based
pIC50: −log10 of the molar value.
readout: pIC50

COc1ccc(C2(O)OC(=O)C(c3cc(OC)ccc3OC)=C2Cc2ccccc2)cc1 (stereo not drawn) ... < 5.60
COc1ccc(C2(O)OC(=O)C(c3ccc4c(c3)OCO4)=C2Cc2ccc3ccccc3c2)cc1 (stereo not drawn) ... < 5.60
COc1ccc(C2(O)OC(=O)C(c3ccc4c(c3)OCO4)=C2Cc2ccc(O)cc2)cc1 (stereo not drawn) ... < 6.60
COC(=O)c1ccc(C2(O)OC(=O)C(c3ccc4c(c3)OCO4)=C2Cc2ccccc2)cc1 (stereo not drawn) ... < 5.60
CSc1ccc(C2(O)OC(=O)C(c3ccc4c(c3)OCO4)=C2Cc2ccccc2)cc1 (stereo not drawn) ... < 5.60
O=C1OC(O)(c2ccc(C(=O)O)cc2)C(Cc2ccccc2)=C1c1ccc2c(c1)OCO2 (stereo not drawn) ... < 5.60
COc1ccc(C2(O)OC(=O)C(c3ccc4c(c3)OCO4)=C2Cc2ccc(SC)cc2)cc1 (stereo not drawn) ... < 5.60

API: the following record is the query input.
Input COc1ccc(C2(O)OC(=O)C(c3ccc4c(c3)OCO4)=C2Cc2cccc3c2CCc2ccccc2C3=O)cc1 (stereo not drawn) . Output pIC50: 5.00
